Test system: velvetleaf
protocol.summary: Test B pre/postemergence velvetleaf
Type: in vivo, Abutilon theophrasti
test.parameters: Rate 125 g/ha; Preemergence; scale of 0 to 10 where 0 is no effect and 10 is complete control
readout: Velvetleaf plant response rating
Format: numeric value only, no unit, no commentary.

Check out these entries, answers already filled in.
INSERT INTO results (molecule, readout, experimental_value) VALUES
  ('CC(C)N(C(=O)n1oc(=O)n(CC(=O)OC(C)(C)C)c1=O)c1ccc(F)cc1', 'Velvetleaf plant response rating', 0),
  ('C=CCn1c(=O)on(C(=O)N(c2ccc(F)cc2)C(C)C(=O)OCC)c1=O (centres unmarked)', 'Velvetleaf plant response rating', 0),
  ('CCCCCC#CCn1c(=O)on(C(=O)N(c2ccc(F)cc2)C(C)C)c1=O', 'Velvetleaf plant response rating', 0);

The recorded Velvetleaf plant response rating for `CC(C)=CCn1c(=O)on(C(=O)N(c2ccc(F)cc2)C(C)C)c1=O` is 0

The recorded Velvetleaf plant response rating for `CC(C)N(C(=O)n1oc(=O)n(CCCF)c1=O)c1ccc(F)cc1` is 7

----------
Tested on: corn
protocol.summary: Test B pre/postemergence corn
Format: in vivo, Zea mays
test.parameters: Preemergence, Rate 500 g/ha; scale of 0 to 10 where 0 is no effect and 10 is complete control
Overview of recorded Corn plant response rating for various molecules
Format: numeric value only, no unit, no commentary.

INSERT INTO assay_data (molecule, readout, experimental_value) VALUES
  ('Cc1c(-n2c(=O)on(C(=O)N(c3ccc(F)cc3)C(C)C)c2=O)ccc2ccccc12 [Compound 338]', 'Corn plant response rating', 0),
  ('CC(=O)C(C)n1c(=O)on(C(=O)N(c2ccccc2)C(C)C)c1=O (stereo not drawn) [Compound 576]', 'Corn plant response rating', 2);

Now consider the entry below.
The recorded Corn plant response rating for CCc1nc(C)c(C(C)n2c(=O)on(C(=O)N(c3ccc(F)cc3F)C(C)C)c2=O)s1 (stereo not drawn) [Compound 589] is 0

----------
Test system: giant foxtail
protocol.summary: Test B pre/postemergence giant foxtail
Type: in vivo, Setaria faberii
test.parameters: Rate 250 g/ha; Postemergence
Description: […] At the same time, these crop and weed species were also treated with postemergence applications of test chemicals formulated in the same manner. […] Treated plants and controls were maintained in a greenhouse for twelve to sixteen days, after which all species were compared to controls and visually evaluated. […]
readout: Plant response rating (0 to 10; 0 is no effect, 10 is complete control), Giant foxtail
Format: numeric value only, no unit, no commentary.

// Plant response rating (0 to 10; 0 is no effect, 10 is complete control), Giant foxtail (giant foxtail) for COc1nc(OC)nc(N(C(=O)n2oc(=O)n(C(C)C)c2=O)C(C)C)n1 [Compound 182] = 0

// Plant response rating (0 to 10; 0 is no effect, 10 is complete control), Giant foxtail (giant foxtail) for Cc1ccccc1-n1c(=O)on(C(=O)N(c2ccc(Cl)cc2F)C(C)C)c1=O [Compound 195] = 1

// Plant response rating (0 to 10; 0 is no effect, 10 is complete control), Giant foxtail (giant foxtail) for C=C(Cn1c(=O)on(C(=O)N(c2ccc(F)cc2)C(C)C)c1=O)C[Si](C)(C)C [Compound 256] = 0

// Plant response rating (0 to 10; 0 is no effect, 10 is complete control), Giant foxtail (giant foxtail) for Cc1ccccc1-n1c(=O)on(C(=O)N(c2ccc(N(C)C)cc2)C(C)C)c1=O [Compound 237] = 0

// Plant response rating (0 to 10; 0 is no effect, 10 is complete control), Giant foxtail (giant foxtail) for CCCCn1c(=O)on(C(=O)N(c2ccc(F)cc2)C(C)C)c1=O [Compound 221] = 7
